target-desc: FGFR3 enzyme (Homo sapiens (Human), UniProt P22607)
Sequence (P22607 23-806): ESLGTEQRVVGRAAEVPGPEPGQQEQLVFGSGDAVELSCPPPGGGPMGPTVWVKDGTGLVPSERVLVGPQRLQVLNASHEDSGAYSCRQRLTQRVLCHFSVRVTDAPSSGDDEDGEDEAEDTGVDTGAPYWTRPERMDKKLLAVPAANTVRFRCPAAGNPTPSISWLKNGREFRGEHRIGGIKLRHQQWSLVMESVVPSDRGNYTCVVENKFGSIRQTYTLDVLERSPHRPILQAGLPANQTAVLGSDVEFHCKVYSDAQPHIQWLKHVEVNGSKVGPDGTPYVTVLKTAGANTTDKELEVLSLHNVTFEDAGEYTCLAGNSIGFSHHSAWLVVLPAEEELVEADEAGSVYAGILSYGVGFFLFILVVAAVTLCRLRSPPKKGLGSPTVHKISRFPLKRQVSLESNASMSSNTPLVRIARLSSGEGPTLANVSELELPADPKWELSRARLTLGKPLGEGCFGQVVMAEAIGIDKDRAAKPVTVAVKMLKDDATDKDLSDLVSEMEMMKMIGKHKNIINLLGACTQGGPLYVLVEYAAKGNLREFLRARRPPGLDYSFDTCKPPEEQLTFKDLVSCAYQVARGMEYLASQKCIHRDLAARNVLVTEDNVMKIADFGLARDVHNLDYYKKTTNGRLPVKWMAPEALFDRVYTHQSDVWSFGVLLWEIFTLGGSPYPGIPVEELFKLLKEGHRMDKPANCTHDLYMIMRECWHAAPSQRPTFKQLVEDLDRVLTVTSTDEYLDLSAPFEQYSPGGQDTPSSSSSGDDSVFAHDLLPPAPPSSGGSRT
test-name: FGFR Enzymatic Assay (FRET peptide phosphorylation), FGFR3
Format: biochemical
run-conditions: pre-incubated for 5 to 10 minutes; read-out: FGFR3 IC50
endpoint-name: IC50

Would you please look over these solved cases?
[[record]]
entry_smiles = "COc1cc(OC)c(F)c(N2Cc3cnc(-c4cnn(C)c4)cc3C3(CC3)C2=O)c1F"
endpoint_name = "IC50"
recorded_value = "< 10 nM"

[[record]]
entry_smiles = "COc1cc(OC)c(F)c(N2Cc3cnc(-c4cccnc4)cc3C3(CC3)C2=O)c1F"
endpoint_name = "IC50"
recorded_value = "30 to 200 nM"

[[record]]
entry_smiles = "COc1cc(OC)c(F)c(N2Cc3cnc(-c4cn(C)nc4C)cc3N(c3ccc4c(c3)C(=O)N(C)C4)C2=O)c1F"
endpoint_name = "IC50"
recorded_value = "10 to 30 nM"

[[record]]
entry_smiles = "COc1cncc(-c2cc3c(cn2)CN(c2c(F)c(OC)cc(OC)c2F)C(=O)C32CC2)c1"
endpoint_name = "IC50"
recorded_value = "10 to 30 nM"

[[record]]
entry_smiles = "COc1cc(OC)c(F)c(N2Cc3cnc(-c4ccc(C5(C#N)CCC5)nc4)cc3N(c3cccnc3)C2=O)c1F"
endpoint_name = "IC50"
recorded_value = "10 to 30 nM"


// query Fill in: IC50 of "COc1cc(OC)c(F)c(N2Cc3cnc(-c4cncc(S(=O)(=O)N5CCOCC5)c4)cc3C3(CC3)C2=O)c1F" is ___
// result 10 to 30 nM

// query Fill in: IC50 of "COc1cc(OC)c(F)c(N2Cc3cnc(-c4cc(N)c(F)cc4C)cc3C3(CC3)C2=O)c1F" is ___
// result > 200 nM

* * *

target-desc: FGFR4 (Homo sapiens (Human), UniProt P22455)
Sequence (P22455 22-802): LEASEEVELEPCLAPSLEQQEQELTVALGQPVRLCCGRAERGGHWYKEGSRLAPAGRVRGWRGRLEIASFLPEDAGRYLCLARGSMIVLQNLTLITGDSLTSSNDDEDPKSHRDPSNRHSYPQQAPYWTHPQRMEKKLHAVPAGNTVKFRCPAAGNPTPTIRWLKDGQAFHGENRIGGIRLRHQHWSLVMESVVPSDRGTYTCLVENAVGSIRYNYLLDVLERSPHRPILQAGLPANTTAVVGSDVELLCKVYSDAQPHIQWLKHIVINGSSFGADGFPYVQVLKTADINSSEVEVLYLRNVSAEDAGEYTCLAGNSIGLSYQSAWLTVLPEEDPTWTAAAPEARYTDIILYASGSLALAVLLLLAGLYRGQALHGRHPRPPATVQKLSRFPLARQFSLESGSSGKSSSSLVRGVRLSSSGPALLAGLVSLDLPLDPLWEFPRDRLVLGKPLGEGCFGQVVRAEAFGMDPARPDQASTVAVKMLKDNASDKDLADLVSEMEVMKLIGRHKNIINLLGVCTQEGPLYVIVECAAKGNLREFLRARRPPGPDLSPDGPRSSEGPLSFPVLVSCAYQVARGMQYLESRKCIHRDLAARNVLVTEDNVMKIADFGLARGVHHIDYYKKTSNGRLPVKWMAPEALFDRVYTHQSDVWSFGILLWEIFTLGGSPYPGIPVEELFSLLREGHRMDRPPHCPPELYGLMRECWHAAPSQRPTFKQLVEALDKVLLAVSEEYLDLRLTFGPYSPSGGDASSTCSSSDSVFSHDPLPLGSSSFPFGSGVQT
test-name: FGFR Enzymatic Assay (FRET peptide phosphorylation), FGFR4
Type: biochemical
run-conditions: pre-incubated for 4 hours
endpoint-name: IC50

[[record]]
molecule = "CCN1C(=O)N(c2cc(OC)cc(C(=O)NC)c2F)Cc2cnc(-c3ccc(C4(C#N)CCC4)nc3)cc21 [Example 28]"
recorded_value = "> 200 nM"

[[record]]
molecule = "COc1cc(N2C(=O)N(c3c(F)c(OC)cc(OC)c3F)Cc3cnc(-c4cn(C)nc4C)cc32)ccc1C#N [Example 81]"
recorded_value = "> 200 nM"

[[record]]
molecule = "COc1cc(OC)c(F)c(N2Cc3cnc(-c4cn(CC#N)nc4C)cc3C3(CC3)C2=O)c1F [Example 153]"
recorded_value = "10 to 30 nM"


// query Fill in: IC50 of COc1cc(OC)c(F)c(N2Cc3cnc(-c4cc(N)ccc4C)cc3C3(CC3)C2=O)c1F [Example 1] is ___
// result 30 to 200 nM

* * *

target-desc: FGFR3 enzyme (Homo sapiens (Human), UniProt P22607)
test-name: FGFR Enzymatic Assay (FRET peptide phosphorylation), FGFR3
Type: biochemical
run-conditions: FGFR3 selectivity; pre-incubated for 4 hours
In this section we review reported FGFR4/FGFR3 IC50 ratio values for a set of compounds.

[[record]]
entry_smiles = "COc1cc(OC)c(F)c(N2Cc3cnc(-c4cn(C)nc4C)cc3N(Cc3cnn(C4CC4)c3)C2=O)c1F"
recorded_value = ">10"

[[record]]
entry_smiles = "COc1cc(OC)c(F)c(N2Cc3cnc(-c4cnn(CC5CN(S(C)(=O)=O)C5)c4)cc3C3(CC3)C2=O)c1F"
recorded_value = ">3"

[[record]]
entry_smiles = "COc1cc(OC)c(F)c(N2Cc3cnc(-c4cn(C)nc4C)cc3N(c3ccc4[nH]ncc4c3)C2=O)c1F"
recorded_value = ">5"

[[record]]
entry_smiles = "COc1cc(OC)c(F)c(N2Cc3cnc(-c4cn(C)nc4C)cc3N(c3ncccn3)C2=O)c1F"
recorded_value = ">5"

[[record]]
entry_smiles = "COC(=O)Nc1ccc(N2C(=O)N(c3c(F)c(OC)cc(OC)c3F)Cc3cnc(-c4cn(C)nc4C)cc32)cc1"
recorded_value = ">3"

[[record]]
entry_smiles = "COc1cc(OC)c(F)c(N2Cc3cnc(-c4cn(C)nc4C)cc3N(Cc3ccncn3)C2=O)c1F"
recorded_value = ">10"

[[record]]
entry_smiles = "COC(=O)N1CCC(N2C(=O)N(c3c(F)c(OC)cc(OC)c3F)Cc3cnc(-c4cn(C)nc4C)cc32)CC1"
recorded_value = ">5"

[[record]]
entry_smiles = "COc1cc(OC)c(F)c(N2Cc3cnc(-c4cn(C)nc4C)cc3N(Cc3ccc4c(c3)OCCO4)C2=O)c1F"
recorded_value = ">5"


// query Fill in: FGFR4/FGFR3 IC50 ratio of "COc1cc(OC)c(F)c(N2Cc3cnc(-c4cn(C)nc4C)cc3N(C3CCN(C(C)=O)CC3)C2=O)c1F" is ___
// result >5

// query Fill in: FGFR4/FGFR3 IC50 ratio of "COc1cc(OC)c(F)c(N2Cc3cnc(-c4cn(C)nc4C)cc3N(Cc3cccnn3)C2=O)c1F" is ___
// result >10

// query Fill in: FGFR4/FGFR3 IC50 ratio of "COc1cc(OC)c(F)c(N2Cc3cnc(-c4ccc(C5(C#N)CCC5)nc4)cc3N(c3cnn(C)c3)C2=O)c1F" is ___
// result >5

// query Fill in: FGFR4/FGFR3 IC50 ratio of "COc1cc(OC)c(F)c(N2Cc3cnc(-c4cn(C)nc4C)cc3N(c3ccc(C(=O)N(C)C)cc3)C2=O)c1F" is ___
// result >5

// query Fill in: FGFR4/FGFR3 IC50 ratio of "COc1cc(OC)c(F)c(N2Cc3cnc(-c4cn(C)nc4C)cc3N(c3ccc(F)cc3)C2=O)c1F" is ___
// result >10

// query Fill in: FGFR4/FGFR3 IC50 ratio of "COc1cc(OC)c(F)c(N2Cc3cnc(-c4cn(C)nc4C)cc3N(c3ccn(C)n3)C2=O)c1F" is ___
// result >5

// query Fill in: FGFR4/FGFR3 IC50 ratio of "COc1cc(OC)c(F)c(N2Cc3cnc(-c4cn(C)nc4C)cc3N(c3cncnc3)C2=O)c1F" is ___
// result >5
